# Test system: RPMI-8226 leukemia
# test: NCI tumour cell line growth inhibition, 48 h
metric_name: TGI

1. CC1(C)CC[C@]2(CO)CC[C@]3(C)C(=CC[C@@H]4[C@@]5(C)CC[C@H](NCO)C(C)(C)[C@@H]5CC[C@]43C)[C@@H]2C1 : 4.57 µM
2. Cc1ccc(NC(=O)CC2SC(=Nc3cccc(Cl)c3C)NC2=O)cc1 (stereo unspecified) : > 100 µM
3. N#Cc1nc(/C=C/c2cccs2)oc1N : > 100 µM
4. CCOC(=O)c1ccc(N(C)Cc2cnc3nc(N)nc(N)c3n2)cc1 : > 100 µM
5. COc1ccc(-c2cc(=O)c3cc4c(cc3[nH]2)OCO4)c(OC)c1 : > 100 µM

Supply TGI measured with RPMI-8226 leukemia for `CCOC(=O)Nc1nc(-c2ccccc2)c(C)s1` .
> 100 µM

Supply TGI measured with RPMI-8226 leukemia for `Oc1c(Nc2ccccc2)cc2c3c1N=NC=3CCN=2` .
> 100 µM

Enter recorded TGI with RPMI-8226 leukemia for `C#CCOCCCC(=O)O` here.
> 100 µM

* * *

# Tested on: HCT-15 colon
# test: NCI tumour cell line growth inhibition, 48 h
Entries and their GI50 values follow.

These solved cases illustrate the format of a correct answer.
1. ClCCN(CCCl)c1ccc(OCc2ccccc2)cc1 : 5.11 µM
2. CCN1C2=C(SC(=S)C1=C1SC(C(=O)c3ccccc3)=C(C(=O)c3ccccc3)S1)SC(=Nc1ccccc1)C2=O : > 100 µM
3. COc1ccc(-c2nc(Nc3ccc(F)cc3)nc(Nc3ccc4c(c3)nc(C)n4Cc3ccccc3)n2)cc1 : 2.95 µM
4. COc1ncnn2ccc(-c3cnc4nc(C)n(Cc5nnc(C(C)F)o5)c4c3)c12 (stereo not drawn) : 0.199 µM

Could you please provide reported GI50 for `Clc1ccc(Nc2ncnc3ccccc23)cc1` ? Thanks!
25.2 µM

Give the reported GI50 for this compound. `O=C(NC(=S)Nc1ccc(-c2nc3ccccc3[nH]2)cc1)c1ccc2ccccc2c1`
3.15 µM

Complete the entry with GI50 for `CC(=O)N[C@@H](Cc1ccc(OP(=O)(O)O)cc1)C(=O)N[C@H]1CCC(=O)N2CCC[C@@H](C(=O)NCc3cccc4ccccc34)N2C1=O`
> 25 µM

Name the recorded GI50 of the compound listed here: Nc1cc2c(c3ccccc13)C(CCl)CN2C(=O)c1cc2cc(NC(=O)c3cc4ccccc4o3)ccc2[nH]1 (stereo not drawn)
> 0.11 µM

Input `Cc1cc(S(=O)(=O)Nc2n[nH]c(-c3ccc(Cl)cc3)c2C#N)c(S)cc1Cl` , output reported GI50.
> 100 µM

State, in one line, measured GI50 of `CO[C@@H]1[C@H](N(C)C(=O)c2ccccc2)C[C@@H]2O[C@]1(C)n1c3ccccc3c3c4c(c5c6ccccc6n2c5c31)C(=O)NC4=O`
0.766 µM

Output measured GI50 for this item: `Cc1cccc2c1NC(=O)[C@@H](NC(=O)[C@H](CCC(F)(F)F)[C@H](CCC(F)(F)F)C(N)=O)N=C2c1cccc(F)c1`
> 100 µM

Please indicate GI50 recorded for `CC(C)[C@]12O[C@H]1[C@@H]1O[C@]13[C@]1(O[C@H]1C[C@H]1C4=C(CC[C@@]13C)C(=O)OC4)[C@@H]2OC(=O)OC(C)(C)C`
0.0253 µM

Identify measured GI50 corresponding to `O=C(/C=C/c1cccnc1)c1ccccc1`
4.1 µM

Dear colleague, please send me the reported GI50 for N#CC1(C#N)C2C=CC(C3CC=CC32)C1(C#N)C#N (stereo not drawn) when you can.
13.2 µM

Respond only with GI50 recorded for `CSc1nc(SC)c2cnn(-c3ccnc4cc(Cl)ccc34)c2n1`
> 71.3 µM

Quick one: give measured GI50 for `CC(=O)NS(=O)(=O)c1ccc(-n2nc(-c3ccccc3)cc2-c2cc(O)ccc2O)cc1`
> 100 µM

Provide measured GI50 value, entry: COc1ccc2c(c1)OC(N)=C(C#N)C2c1ccc(F)c(F)c1 (stereo not drawn)
0.348 µM

Return the recorded GI50 value; entry: `Fc1ccc(-c2nn3c(COc4ccccc4Cl)nnc3s2)cc1Oc1ccccc1`
38.7 µM
